Measured values drawn from the CheMixHub drug solubility set for this set.

experiment: xn = mol fraction of the nth substance listed, in the solute-free solvent; conditions: 293.15 K; x2 = 0.7
Classification by solubility (g/100 g solution) follows these ranges: low: < 2; middle: ≥ 2 and < 4; high: ≥ 4

[
  {
    "compound": "O=C1CCc2ccc(OCCCCN3CCN(c4cccc(Cl)c4Cl)CC3)cc2N1 + CCC(C)=O + CCOC(C)=O",
    "assigned_label": "low"
  }
]

Exam item: # classify by solubility (g/100 g solution) band: O=C1CCc2ccc(OCCCCN3CCN(c4cccc(Cl)c4Cl)CC3)cc2N1 + CCC(C)=O + CCCO
Marked response: middle

Exam item: # classify by solubility (g/100 g solution) band: COC1=CC(=O)CC(C)C12Oc1c(Cl)c(OC)cc(OC)c1C2=O (stereo not given) + CCC(C)=O + CC(C)O
Marked response: low

Exam item: # classify by solubility (g/100 g solution) band: CCCCOc1ccc(C(=O)CCN2CCCCC2)cc1.Cl + CCO + CCCCCC
Marked response: high
